Let's look at some molecules and their measured IC50.
Target: b-Raf (V600E) (Homo sapiens (Human), UniProt P15056, V600E)
Sequence (P15056 whole entry V600E): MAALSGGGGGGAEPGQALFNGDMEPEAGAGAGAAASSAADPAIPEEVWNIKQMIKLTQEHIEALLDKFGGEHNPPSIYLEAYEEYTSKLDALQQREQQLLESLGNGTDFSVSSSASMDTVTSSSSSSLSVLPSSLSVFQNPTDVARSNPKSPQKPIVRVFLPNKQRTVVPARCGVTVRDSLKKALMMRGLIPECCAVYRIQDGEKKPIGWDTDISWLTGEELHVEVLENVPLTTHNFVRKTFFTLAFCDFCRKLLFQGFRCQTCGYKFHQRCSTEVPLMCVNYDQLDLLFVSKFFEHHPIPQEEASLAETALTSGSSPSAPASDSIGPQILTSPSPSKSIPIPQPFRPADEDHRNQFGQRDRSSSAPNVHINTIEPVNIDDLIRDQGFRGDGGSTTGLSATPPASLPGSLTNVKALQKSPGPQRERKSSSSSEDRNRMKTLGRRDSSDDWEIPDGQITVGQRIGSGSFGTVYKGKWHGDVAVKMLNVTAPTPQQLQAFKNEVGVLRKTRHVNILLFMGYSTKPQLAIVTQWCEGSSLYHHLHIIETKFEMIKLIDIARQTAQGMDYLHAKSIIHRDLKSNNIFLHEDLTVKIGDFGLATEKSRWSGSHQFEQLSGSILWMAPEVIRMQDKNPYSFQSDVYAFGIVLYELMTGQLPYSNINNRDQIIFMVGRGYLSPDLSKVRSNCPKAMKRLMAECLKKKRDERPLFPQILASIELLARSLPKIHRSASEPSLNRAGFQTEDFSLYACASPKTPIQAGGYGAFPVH
Conditions: read-out: b-Raf IC-50; Table 2; AlphaScreen, 3 hours reaction
propertyLabel: IC50 (nM)

INSERT INTO measurements (compoundstructurestring, valuereported) VALUES
  ('Cn1cc(-c2cc(NC(=O)c3cccc(C(F)(F)F)c3)ccc2F)cc(N2CCOCC2)c1=O', 2),
  ('Cc1ncc(NC(=O)c2ccnc(C3(C#N)CC3)c2)cc1-c1cnc(N(C)C)c(N2CCOCC2)c1', 1.9),
  ('Cc1ccc(NC(=O)c2cccc(-c3nnco3)c2)cc1-c1cc(N2CCOCC2)c(=O)n(C)c1', 6.2),
  ('Cc1ccc(NC(=O)c2cnnc(C(F)(F)F)c2)cc1-c1cc(N2CCOCC2)c(=O)n(C)c1', 2.8),
  ('Cc1ncc(NC(=O)c2cccc(C(F)(F)F)c2)cc1-c1cnc(O[C@@H]2CCOC2)c(N2CCOCC2)c1', 2.4),
  ('CCOc1ncc(-c2cc(NC(=O)c3ccnc(C(C)(C)O)c3)cnc2C)cc1N1CCOCC1', 15.3),
  ('Cn1cc(-c2cc(NC(=O)c3ccnc(C(C)(F)F)c3)ccc2Cl)cc(N2CCOCC2)c1=O', 1.4);
